Tested on: L. amazonensis promastigote
Assay: Antileishmanial activity assay, promastigote forms (live parasite counting)
Assay type: cell-based, Leishmania amazonensis
Conditions: Leishmania amazonensis; 24 h; mean ± SD
Readout Name: IC50 (µM)
Numbers only, in µM.

Query: Return reported IC50; argument: COC(=O)c1cc(O)cc(OC)c1C(=O)c1c(O)cc(C)cc1OC
Reply: 18

----------
Test: Cytotoxicity assay (MTT)
Format: cell-based
Conditions: mouse, peritoneal macrophages (thioglycolate-elicited); BALB/c peritoneal macrophages, 24 h, MTT; mean ± SD; read-out: Cytotoxicity CC50
Description: The animals were stimulated by intraperitoneal inoculation of 3.0 ml of sodium thioglycolate at 3.0%. […] Wells without cells were used as blank, and wells with cells and 1% DMSO were used as control. After 24-h incubation period, cell viability was assessed by MTT. […]
Readout Name: CC50 at 24 h (µM)
Answers are plain numbers, in µM.

COC(=O)c1cc(O)cc(OC)c1C(=O)c1c(O)cc(C)cc1OC ... 91.6

Consider now this further molecule.
Query: Return reported CC50 at 24 h; argument: CC/C=C\[C@H](O)[C@H](O)C1=C(C)C(=O)[C@]2(O1)C(=O)N[C@@](OC)(C(=O)c1ccccc1)[C@@H]2O
Reply: 654

----------
Assay: Cytotoxicity assay (MTT)
Format: cell-based
Settings: BALB/c, mouse
Readout Name: CC50 at 24 h (µM)
One number for each entry, in µM.

Query: Return reported CC50 at 24 h; argument: C[C@@H]1[C@H](O)[C@@H](C)/C=C/C=C/C=C/C=C/C=C/C=C/C=C/[C@H](O[C@@H]2O[C@H](C)[C@@H](O)[C@H](N)[C@@H]2O)C[C@@H]2O[C@](O)(C[C@@H](O)C[C@@H](O)[C@H](O)CC[C@@H](O)C[C@@H](O)CC(=O)O[C@H]1C)C[C@H](O)[C@H]2C(=O)O [Amphotericin B, amphotericin B, reference compound]
Reply: 8.45
